measuredQuantity: melting point

input: If you can, please state the reported melting point value of Cc1cccc(-c2nc(NC(=O)c3cccnc3)sc2-c2ccnc(NC3CCCC3)c2)c1 .
output: 215 to 216 °C

input: What do we get for CCC(=O)Nc1cc(-c2sc(C(C)(F)F)nc2-c2cccc(Cl)c2)ccn1 ?
output: 141 to 142 °C

input: Here is the next molecule: CCCc1nc(-c2cccc(C)c2)c(-c2ccnc(N)c2)s1
output: 113 to 115 °C

====

The following compounds are listed with their measured melting point values.

Please review the entries below; each comes with its answer.
# smilesRepresentation, melting point
rows = [
    ("Cc1cccc(-c2nc(CCc3ccccc3)sc2-c2ccnc(C)c2)c1", "64 to 65 °C"),
    ("CCCCCC(=O)Nc1cc(-c2sc(CC)nc2-c2cccc(Cl)c2)ccn1", "114 to 115 °C"),
]

input: Look up melting point for this compound: Cc1cccc(-c2nc(-c3ccccc3F)sc2-c2ccnc(C)c2)c1
output: 73 to 74 °C

input: Check Cc1cccc(-c2nc(C)sc2-c2ccnc(N)c2)c1 too.
output: 152 to 153 °C
